Reported remaining target (mRNA or protein) (fraction of control) values follow for various sequences
Molecular target: IL15
Settings: ASO; also: test concentration or dose not given here
These antisense oligonucleotides have a phosphorothioate backbone; sugars and methylation of C are not fully specified.
reportedMetric: remaining target (mRNA or protein) (fraction of control)

# querySequence, comparisonOperator, resultNumber
measured = [
    ("TTTAGAAGTAAACACAAG", "≥", 1),
    ("TCACATTCTTTGCATCCA", "=", 0.31),
    ("GTATTGAAGAAGAGCTGG", "≥", 1),
    ("GGGTGAACATCACTTTCC", "=", 0.43),
    ("AAGAAGTGTTGATGAACA", "=", 0.83),
    ("GCCCTGCACTGAAACAGC", "=", 0.39),
]

---

Target: BIRC3
Conditions: ASO
These antisense oligonucleotides have a phosphorothioate backbone; sugars and methylation of C are not fully specified.
Please use the following remaining target (mRNA or protein) (fraction of control) ranges when assigning a class: low band: < 0.5; middle band: ≥ 0.5 and < 0.8; high band: ≥ 0.8

# querySequence, answerLabel
data = [
    ("CAAACGTGTTGGCGCTTT", "middle band"),
    ("ATTTGTTACTGAAGAAGG", "high band"),
    ("GCAGCATTAATCACAGGA", "high band"),
    ("ACCATATTTCACTGATTC", "low band"),
    ("TGTAGTGCTACCTCTTTT", "low band"),
    ("CCTTCGATGTATAGGACA", "high band"),
    ("TGTGTGACTCATGAAGCT", "middle band"),
    ("CACAAGACCTAACTCAAA", "middle band"),
    ("GGTCAACTTCTCCAGGCT", "low band"),
    ("TTTGACATCATCACTGTT", "high band"),
    ("AGCAGGAAAAGTGGAATA", "high band"),
    ("TTCAGTGGCATTCAATCA", "middle band"),
    ("GCTCTGCTGTCAAGTGTT", "low band"),
    ("CTAACTCAAAGGAGGAAA", "high band"),
    ("AAGAAGGAGCACAATCTT", "low band"),
    ("CTGAAATTTTGATTGAAT", "high band"),
    ("TGGCTTGAACTTGACGGA", "high band"),
    ("GTAAGTAATCTGGCATTT", "high band"),
    ("GAAACCAAATTAGGATAA", "high band"),
    ("CATGTCCCTAAAATGTCA", "high band"),
    ("CTTAGAGGTACGTAAAAT", "middle band"),
    ("AAATCTTGATTTGCTCTG", "high band"),
    ("ATATAACACAGCTTCAGC", "high band"),
    ("TTAACGGAATTTAGACTC", "high band"),
    ("TTTCTCTCTCCTCTTCCC", "high band"),
    ("GCACTTTTATTTCTTAGA", "low band"),
    ("AACATCATGTTCTTGTTC", "high band"),
    ("TACAATTTCAATAATGCT", "middle band"),
    ("TCATCTCCTGGGCTGTCT", "middle band"),
    ("TAAAACCCTTCACAGAAG", "high band"),
    ("AGAGCCACGGAAATATCC", "high band"),
    ("TTAAGGAAGAAATACACA", "high band"),
]
